A collection of compounds and their measured Crypt Height
Tested on: acute self-limiting colitis in mice
assay_name: Histological scoring of inflammation, C. rodentium colitis in germ-free mice colonized with B. ovatus (Example 3)
Type: in vivo
run_parameters: cecal tissue; gavage 3 days; prednisolone forms 1 mg/kg/day, dexamethasone forms 0.6 mg/kg/day; n=2
Please state the value as a number alone, without comment.

compound	Crypt Height
C[C@@H]1C[C@H]2[C@@H]3CCC4=CC(=O)C=C[C@]4(C)[C@@]3(F)[C@@H](O)C[C@]2(C)[C@@]1(O)C(=O)CO[C@@H]1OC(CO)[C@@H](O[C@@H]2OC(CO[C@H]3OC[C@@H](O)C(O)C3O)[C@@H](O[C@@H]3OC(CO[C@H]4OC[C@@H](O)C(O)C4O)[C@@H](O[C@@H]4OC(CO[C@H]5OC[C@@H](O)C(O)C5O)[C@@H](O)C(O)C4O)C(O)C3O)C(O)C2O)C(O)C1O (stereo partly drawn) [XXXG-DEXA, XXXG-β-O-dexamethasone]	1
C[C@]12C=CC(=O)C=C1CC[C@@H]1[C@@H]2[C@@H](O)C[C@@]2(C)[C@H]1CC[C@]2(O)C(=O)CO[C@@H]1OC(CO)[C@@H](O[C@@H]2OC(CO[C@H]3OC[C@@H](O)C(O)C3O)[C@@H](O[C@@H]3OC(CO[C@H]4OC[C@@H](O)C(O)C4O)[C@@H](O[C@@H]4OC(CO[C@H]5OC[C@@H](O)C(O)C5O)[C@@H](O)C(O)C4O)C(O)C3O)C(O)C2O)C(O)C1O (stereo partly drawn) [XXXG-PRED, XXXG-β-O-prednisolone]	2
C[C@]12C=CC(=O)C=C1CC[C@@H]1[C@@H]2[C@@H](O)C[C@@]2(C)[C@H]1CC[C@]2(O)C(=O)CO [prednisolone, reference compound]	1.5

Consider now this further compound.
Task: # query: Crypt Height of entry C[C@@H]1C[C@H]2[C@@H]3CCC4=CC(=O)C=C[C@]4(C)[C@@]3(F)[C@@H](O)C[C@]2(C)[C@@]1(O)C(=O)CO [dexamethasone, reference compound]
Output: 1

====

System: acute self-limiting colitis in mice
assay_name: Histological scoring of inflammation, C. rodentium colitis in germ-free mice colonized with B. ovatus (Example 3)
Type: in vivo
run_parameters: cecal tissue; sum of each scoring category; n=2
Recorded Total Score by entry

Task: Form field - read-out: Total Score; system: acute self-limiting colitis in mice; submitted item: C[C@@H]1C[C@H]2[C@@H]3CCC4=CC(=O)C=C[C@]4(C)[C@@]3(F)[C@@H](O)C[C@]2(C)[C@@]1(O)C(=O)CO [dexamethasone, reference compound]
Output: 6

Task: Can you look up Total Score on acute self-limiting colitis in mice for C[C@@H]1C[C@H]2[C@@H]3CCC4=CC(=O)C=C[C@]4(C)[C@@]3(F)[C@@H](O)C[C@]2(C)[C@@]1(O)C(=O)CO[C@@H]1OC(CO)[C@@H](O[C@@H]2OC(CO[C@H]3OC[C@@H](O)C(O)C3O)[C@@H](O[C@@H]3OC(CO[C@H]4OC[C@@H](O)C(O)C4O)[C@@H](O[C@@H]4OC(CO[C@H]5OC[C@@H](O)C(O)C5O)[C@@H](O)C(O)C4O)C(O)C3O)C(O)C2O)C(O)C1O (stereo partly shown) ?
Output: 8.5

Task: What reported Total Score corresponds to C[C@]12C=CC(=O)C=C1CC[C@@H]1[C@@H]2[C@@H](O)C[C@@]2(C)[C@H]1CC[C@]2(O)C(=O)CO [prednisolone, reference compound] on acute self-limiting colitis in mice?
Output: 8

Task: // map C[C@]12C=CC(=O)C=C1CC[C@@H]1[C@@H]2[C@@H](O)C[C@@]2(C)[C@H]1CC[C@]2(O)C(=O)CO[C@@H]1OC(CO)[C@@H](O[C@@H]2OC(CO[C@H]3OC[C@@H](O)C(O)C3O)[C@@H](O[C@@H]3OC(CO[C@H]4OC[C@@H](O)C(O)C4O)[C@@H](O[C@@H]4OC(CO[C@H]5OC[C@@H](O)C(O)C5O)[C@@H](O)C(O)C4O)C(O)C3O)C(O)C2O)C(O)C1O (stereo partly shown) to recorded Total Score (system: acute self-limiting colitis in mice)
Output: 10

These data points were gathered from patent US20220184220A1.
